B1: FUNDC2 (parent)
chain: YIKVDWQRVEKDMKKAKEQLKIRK

variants of: B1; assay: protein stability index of a GFP-peptide fusion (GPS, HEK-293T) (PSI 1-6); higher = more stable; conditions: c terminus: a fixed tail appended;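 also: lentivirally expressed fusions sorted by FACS into six bins by GFP to DsRed ratio, PSI derived from sequencing read proportions per bin multiplied by bin number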
Readout Name: protein stability index

INSERT INTO results (variant_annotation, readout_name, recorded_result) VALUES
  ('W6C', 'protein stability index', 2.64),
  ('W6Y', 'protein stability index', 2.24),
  ('A16F', 'protein stability index', 2.16),
  ('Q19W', 'protein stability index', 1.79),
  ('V9N', 'protein stability index', 2.37),
  ('K14P', 'protein stability index', 1.86),
  ('E18P', 'protein stability index', 2.48),
  ('K3N', 'protein stability index', 2.22),
  ('D5H', 'protein stability index', 1.64),
  ('K11T', 'protein stability index', 2.56),
  ('D5W', 'protein stability index', 3.34),
  ('D5F', 'protein stability index', 2.33),
  ('K3I', 'protein stability index', 1.73),
  ('R8S', 'protein stability index', 1.96),
  ('A16E', 'protein stability index', 1.43),
  ('V9Y', 'protein stability index', 1.67),
  ('E10P', 'protein stability index', 1.77),
  ('K17G', 'protein stability index', 2.69),
  ('Q7F', 'protein stability index', 2.84),
  ('R8L', 'protein stability index', 2.21),
  ('Q7C', 'protein stability index', 2.41),
  ('K21P', 'protein stability index', 1.84);
